Origin of values: patent US20240360178A1

tested-target: human PD-1 (Jurkat-PD-1 cells) / PE-labeled human PD-L1-Ig (Homo sapiens)
Construct: expressed in transfected cells; host or cells: Jurkat cell line over-expressing human PD-1
procedure-text: Jurkat-PD-1 Cell Binding High-Content Screening Assay (CBA); Jurkat hPD1-PDL1 assay
measurement-conditions: Jurkat cell line over-expressing human PD-1; PE-labeled PD-L1-Ig 20 nM final; compound incubated 2 hours at 37° C.; read-out: Jurkat HPD1-PDL1 IC50
pIC50: −log10 of the molar value. Positions of bridges follow the written chain, without caps; N, C: chain ends. Non-standard residues stand in square brackets, D forms with d. Residues, ends and D or L forms follow the SMILES beside them. Bip = N[C@@H](Cc1ccc(-c2ccccc2)cc1)C(=O)O; NMeF = CN[C@@H](Cc1ccccc1)C(=O)O; NMeA = CN[C@@H](C)C(=O)O; Sar = CNCC(=O)O
# reported pIC50; entries follow
recorded-endpoint: pIC50

[[record]]
compound = "CC(C)C[C@@H]1NC(=O)[C@H](Cc2c[nH]c3ccccc23)NC(=O)[C@H](CC(=O)O)NC(=O)[C@H](Cc2ccc(O)cc2)NC(=O)[C@H](Cc2ccccc2)NC(=O)CSC[C@@H](C(=O)NCC(N)=O)NC(=O)[C@H](CO)NC(=O)[C@H](C(C)C)NC(=O)[C@H](CC(C)C)NC(=O)[C@H](CCC(=O)O)NC(=O)CN(C)C(=O)[C@H](C)N(C)C(=O)[C@H](C(C)C)NC(=O)[C@H](Cc2ccc(-c3ccccc3)cc2)NC1=O [Example 1071] ({CH2CO}-FYDWL[Bip]V[NMeA][Sar]ELVSCG-NH2; thioether N-14)"
recorded_endpoint = "pIC50"
observed = 6.72

[[record]]
compound = "CC(C)C[C@@H]1NC(=O)[C@H](CCCNC(=N)N)NC(=O)[C@H](Cc2ccccc2)N(C)C(=O)[C@H](C)N(C)C(=O)[C@H](CCCNC(=N)N)NC(=O)[C@H](Cc2ccc(-c3ccccc3)cc2)NC(=O)[C@H](C(C)C)NC(=O)[C@H](Cc2c[nH]c3ccccc23)NC(=O)[C@H](CC(=O)O)NC(=O)[C@H](Cc2ccc(O)cc2)NC(=O)[C@H](Cc2ccccc2)NC(=O)CSC[C@@H](C(=O)N[C@@H](C)C(N)=O)NC(=O)[C@H](CO)NC(=O)[C@H](C(C)C)NC1=O [Example 1074] ({CH2CO}-FYDWV[Bip]R[NMeA][NMeF]RLVSCA-NH2; thioether N-14)"
recorded_endpoint = "pIC50"
observed = 6.72


---

As shown below, each of these compounds has a reported IC50 value.
tested-target: human PD-1 (Jurkat-PD-1 cells) / PE-labeled human PD-L1-Ig (Homo sapiens, UniProt Q15116)
Construct: expressed in transfected cells; host or cells: Jurkat cell line over-expressing human PD-1
Sequence (Q15116 25-288): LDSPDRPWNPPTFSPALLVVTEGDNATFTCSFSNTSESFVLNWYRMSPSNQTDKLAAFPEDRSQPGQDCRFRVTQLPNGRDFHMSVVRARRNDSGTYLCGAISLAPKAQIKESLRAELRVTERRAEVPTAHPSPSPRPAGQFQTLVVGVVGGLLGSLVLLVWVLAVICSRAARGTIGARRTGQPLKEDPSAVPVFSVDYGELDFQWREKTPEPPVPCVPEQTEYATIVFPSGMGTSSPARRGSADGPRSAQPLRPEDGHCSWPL
procedure-text: Jurkat-PD-1 Cell Binding High-Content Screening Assay (CBA); Jurkat hPD1-PDL1 assay
measurement-conditions: Jurkat cell line over-expressing human PD-1; PE-labeled PD-L1-Ig 20 nM final; compound incubated 2 hours at 37° C.; read-out: Jurkat HPD1-PDL1 IC50
From the text: The ability of the compounds of formula (I) to bind to PD-1 was investigated using a Jurkat-PD-1 Cell Binding High-Content Screening Assay. Jurkat-PD-1 Cell Binding High-Content Screening Assay (CBA) Phycoerythrin (PE) was covalently linked to the Ig epitope tag of human PD-L1-Ig and fluorescently-labeled PD-L1-Ig was used for binding studies with a Jurkat cell line over-expressing human PD-1 (Jurkat-PD-1). […]
Positions of bridges follow the written chain, without caps; N, C: chain ends. Non-standard residues stand in square brackets, D forms with d. Residues, ends and D or L forms follow the SMILES beside them. Bip = N[C@@H](Cc1ccc(-c2ccccc2)cc1)C(=O)O; NMeF = CN[C@@H](Cc1ccccc1)C(=O)O; 4Pal = N[C@@H](Cc1ccncc1)C(=O)O; Cha = N[C@@H](CC1CCCCC1)C(=O)O; NMeA = CN[C@@H](C)C(=O)O; Dab = NCC[C@H](N)C(=O)O; Sar = CNCC(=O)O
recorded-endpoint: IC50 (nM)

[[record]]
compound = "CC(C)C[C@@H]1NC(=O)[C@H](Cc2c[nH]c3ccccc23)NC(=O)[C@H](CC(=O)O)NC(=O)[C@H](Cc2ccc(O)cc2)NC(=O)[C@H](Cc2ccncc2)NC(=O)CSC[C@@H](C(=O)N[C@@H](C)C(N)=O)NC(=O)[C@H](CO)NC(=O)[C@H](C(C)C)NC(=O)[C@H](CC(C)C)NC(=O)[C@H](CC(N)=O)NC(=O)[C@H]2CCCN2C(=O)[C@H](C)N(C)C(=O)[C@H](C(C)C)NC(=O)[C@H](Cc2ccc(-c3ccccc3)cc2)NC1=O [Example 1023] ({CH2CO}-[4Pal]YDWL[Bip]V[NMeA][dP]NLVSCA-NH2; thioether N-14)"
observed = 40

[[record]]
compound = "CC(C)C[C@@H]1NC(=O)[C@H](Cc2c[nH]c3ccccc23)NC(=O)[C@H](CC(=O)O)NC(=O)[C@H](Cc2ccc(O)cc2)NC(=O)[C@H](Cc2ccccc2)NC(=O)CSC[C@@H](C(=O)N[C@@H](C)C(N)=O)NC(=O)[C@H](CO)NC(=O)[C@H](C(C)C)NC(=O)[C@H](CC2CCCCC2)NC(=O)[C@H](CC(N)=O)NC(=O)CN(C)C(=O)[C@H](C)N(C)C(=O)[C@H](C(C)C)NC(=O)[C@H](Cc2ccc(-c3ccccc3)cc2)NC1=O [Example 1093] ({CH2CO}-FYDWL[Bip]V[NMeA][Sar]N[Cha]VSCA-NH2; thioether N-14)"
observed = 270

[[record]]
compound = "CC(C)C[C@@H]1NC(=O)[C@H](CCN)NC(=O)[C@H](Cc2ccccc2)N(C)C(=O)[C@H](C)N(C)C(=O)[C@H](CCCNC(=N)N)NC(=O)[C@H](Cc2ccc(-c3ccccc3)cc2)NC(=O)[C@H](C(C)C)NC(=O)[C@H](Cc2c[nH]c3ccccc23)NC(=O)[C@H](CC(=O)O)NC(=O)[C@H](Cc2ccc(O)cc2)NC(=O)[C@H](Cc2ccccc2)NC(=O)CSC[C@@H](C(=O)N[C@@H](C)C(N)=O)NC(=O)[C@H](CO)NC(=O)[C@H](C(C)C)NC1=O [Example 1304] ({CH2CO}-FYDWV[Bip]R[NMeA][NMeF][Dab]LVSCA-NH2; thioether N-14)"
observed = 60

[[record]]
compound = "CC(C)C[C@@H]1NC(=O)[C@H](Cc2c[nH]c3ccccc23)NC(=O)[C@H](CC(=O)O)NC(=O)[C@H](Cc2ccc(O)cc2)NC(=O)[C@H](Cc2ccccc2)NC(=O)CSC[C@@H](C(=O)NCC(N)=O)NC(=O)[C@H](CCCNC(=N)N)NC(=O)[C@H](C(C)C)NC(=O)[C@H](CC(C)C)NC(=O)[C@H](CC(N)=O)NC(=O)CN(C)C(=O)[C@H](C)N(C)C(=O)[C@H](C(C)C)NC(=O)[C@H](Cc2ccc(-c3ccccc3)cc2)NC1=O [Example 1226] ({CH2CO}-FYDWL[Bip]V[NMeA][Sar]NLVRCG-NH2; thioether N-14)"
observed = 890


---

tested-target: human PD-1 (Jurkat-PD-1 cells) / PE-labeled human PD-L1-Ig (Homo sapiens, UniProt Q15116)
Construct: expressed in transfected cells; host or cells: Jurkat cell line over-expressing human PD-1
procedure-text: Jurkat-PD-1 Cell Binding High-Content Screening Assay (CBA); Jurkat hPD1-PDL1 assay
measurement-conditions: Jurkat cell line over-expressing human PD-1; PE-labeled PD-L1-Ig 20 nM final; compound incubated 2 hours at 37° C.; read-out: Jurkat HPD1-PDL1 IC50
Positions of bridges follow the written chain, without caps; N, C: chain ends. Non-standard residues stand in square brackets, D forms with d. Residues, ends and D or L forms follow the SMILES beside them. Bip = N[C@@H](Cc1ccc(-c2ccccc2)cc1)C(=O)O; Orn = NCCC[C@H](N)C(=O)O; Dab = NCC[C@H](N)C(=O)O
recorded-endpoint: IC50 (nM)

[[record]]
molecule = "CC(C)C[C@@H]1NC(=O)[C@H](Cc2c[nH]c3ccccc23)NC(=O)[C@H](CC(=O)O)NC(=O)[C@H](Cc2ccc(O)cc2)NC(=O)[C@H](Cc2ccccc2)NC(=O)CSC[C@@H](C(=O)N[C@@H](C)C(N)=O)NC(=O)[C@H]([C@@H](C)O)NC(=O)[C@H](C(C)C)NC(=O)[C@H](CC(C)C)NC(=O)[C@H](CCN)NC(=O)[C@H]2CCCN2C(=O)[C@H](CCCN)NC(=O)[C@H](C(C)C)NC(=O)[C@H](Cc2ccc(-c3ccccc3)cc2)NC1=O [Example 1422] ({CH2CO}-FYDWL[Bip]V[Orn][dP][Dab]LVTCA-NH2; thioether N-14)"
recorded_endpoint = "IC50"
measurement_unit = "nM"
observed = 140

[[record]]
molecule = "CC(C)C[C@@H]1NC(=O)[C@H](Cc2c[nH]c3ccccc23)NC(=O)[C@H](CC(=O)O)NC(=O)[C@H](Cc2ccc(O)cc2)NC(=O)[C@H](CC(N)=O)NC(=O)CSC[C@@H](C(=O)N[C@@H](C)C(N)=O)NC(=O)[C@H](CO)NC(=O)[C@H](C(C)C)NC(=O)[C@H](CC(C)C)NC(=O)[C@H](CCN)NC(=O)[C@H]2CCCN2C(=O)[C@H](CCCN)NC(=O)[C@H](C(C)C)NC(=O)[C@H](Cc2ccc(-c3ccccc3)cc2)NC1=O [Example 1401] ({CH2CO}-NYDWL[Bip]V[Orn][dP][Dab]LVSCA-NH2; thioether N-14)"
recorded_endpoint = "IC50"
measurement_unit = "nM"
observed = 170

